Source listed as paper PMC13494018.

# system-name: CD276, Q5ZPR3
# Sequence (Q5ZPR3 whole entry): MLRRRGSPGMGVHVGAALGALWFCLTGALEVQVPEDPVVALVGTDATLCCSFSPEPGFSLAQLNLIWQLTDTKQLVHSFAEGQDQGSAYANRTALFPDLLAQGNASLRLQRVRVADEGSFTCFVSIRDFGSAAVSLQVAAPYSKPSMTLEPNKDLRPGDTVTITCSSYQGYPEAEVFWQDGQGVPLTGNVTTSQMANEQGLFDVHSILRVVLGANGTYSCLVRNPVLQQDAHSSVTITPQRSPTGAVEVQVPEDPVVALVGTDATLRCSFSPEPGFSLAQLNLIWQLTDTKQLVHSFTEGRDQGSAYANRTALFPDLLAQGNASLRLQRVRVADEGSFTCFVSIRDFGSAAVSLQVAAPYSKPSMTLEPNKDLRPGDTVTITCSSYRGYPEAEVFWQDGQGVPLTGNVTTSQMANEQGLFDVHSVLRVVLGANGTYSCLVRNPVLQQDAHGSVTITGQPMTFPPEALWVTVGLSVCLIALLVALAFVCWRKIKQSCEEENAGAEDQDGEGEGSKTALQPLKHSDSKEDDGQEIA
Outcomes you can answer with include only these: yes (active), no (inactive)

*Q* Can you look up the reported call for d6r1_design_ppi_398_dldesign_0_cycle0_af2pred (protein) STAASLATGARVIANLFERAIEAAADPATRAEAEGLARSAAEIGALIGPELAAIAEAGLAAIGDLAAMRAELERVRALAAAA for me?
*A* no

*Q* Given d1r7_design_ppi_719_dldesign_0_cycle1_af2pred (protein) SGAQAAVAAAQANLRQAKQLLEEGDYEGALGHIKLAKLAADAAKKQATAAGDQAAIDQATALQKEAEELEKEAKKALE , state the outcome it received in this test.
*A* no

*Q* // param item: d1r8_design_ppi_139_dldesign_0_cycle1_af2pred (protein) AMSVGELMEVAKAEGAAVNAAAAALAAKDPAKAAALLDAYRAKVNAIIAEMSRTAIASGDFEAAAAAAAAKIKAAAKETLAALKAIA ; yields the recorded call
*A* no

*Q* Status in this test for d2r2_design_ppi_370_dldesign_0_cycle1_af2pred (protein) RVISPAEIVELHTAANAALREALEGDPEAGLARLRAVADRAAALSPALGAALRAEAEGARAALAAAAAAAAA ?
*A* no

*Q* State the result this test recorded for d1r6_design_ppi_905_dldesign_0_cycle0_af2pred (protein) AAVEAAQEEALRALEEARALAREVLAADPERAARVAARIEEAAELVRDGEKINEGLALLVELAAESPAEVKPALMRAAALAGRAYVLR .
*A* no

*Q* Please let me know the test result on file for d1r8_design_ppi_742_dldesign_0_cycle1_af2pred (protein) AAAAAAKAAAAAAAQAALRSLRDLAARAKAAEAAGDPEAAAKYRAAAEQWADIAIASAKQAGTEATVAAEAAALLAA .
*A* no

*Q* How was d1r8_design_ppi_443_dldesign_0_cycle0_af2pred (protein) SAAAALLARTAAAIVAQTRALVGDAKAAEAQALADAAVAAAKAGDYAKAGALLTELLKLAAEARREKAAAEAAAAA classified in this test?
*A* no

*Q* GET /call?item= d6r1_design_ppi_30_dldesign_0_cycle0_af2pred (protein) EKEEIIKKAKELKEQAEKVLAEDVSPLAKKVAEQAIKHAEKAIEAAKAGDLEEAKAHLSSAEAFVLGLTR returns the recorded outcome of this test.
*A* no

*Q* Hi team, can someone confirm the assay call for d1r7_design_ppi_815_dldesign_0_cycle0_af2pred (protein) MEDLEELLRLIAEAQRALKTDAEEGIKLAEEAAKKAEELGLEKAAKLLKEAAKAAKTDAEEGIRLLNQAATQAAREYSEK ?
*A* no

*Q* Please state the recorded outcome for this binder: d6r1_design_ppi_900_dldesign_0_cycle1_af2pred (protein) GEEAAREAEELERRAEELEELARRARELSAEELTEAALEAVRLANRAHALMTAGAPPEVAARLQEVAARALEAAERLSREAREKRA
*A* no

*Q* Field: outcome | Entry: d1r7_design_ppi_855_dldesign_0_cycle0_af2pred (protein) SAAAAQARAVARMAAAAAESGVDAAEVLAVVTGAAQQLAADPAALQAMLDTLTALAAASTPEAAAVLAAAAAAVAAVLA
*A* no

*Q* Please indicate how the test categorized d1r8_design_ppi_128_dldesign_0_cycle0_af2pred (protein) EEEVKKAKEEAEKAIEEARETERRYFAEAGRNPANALAYLQAGLEELEKIAKELERKGEEEGGEAGKVYKEAAREIKERRERIAAALS .
*A* no

*Q* Lab log entry: d1r8_design_ppi_356_dldesign_0_cycle1_af2pred (protein) VLEAVSAALSLAEEAAELDPRAGHALLTYANAVWNPATLEKGRKTAREKAKEFKKRAEEEDGERARKAAELLEKAIEEAEKLLKEA — outcome as called in the assay?
*A* no

*Q* Write down the call the test reported for this binder. Item: d1r8_design_ppi_661_dldesign_0_cycle1_af2pred (protein) DVVAEARELAARAEEAAERARADPAASQEVVDLFRQAAGYARNALLLAEGTPESQAQAARLLERARRLFEEAERRFRADVAAAA
*A* no

*Q* Identify the outcome logged in this assay for the binder shown: d1r8_design_ppi_667_dldesign_0_cycle0_af2pred (protein) SAAAAAALAAARATAVAALTAGTGLAPEEAAALAAAMTDDQIFAIANLNAANPAAGQALAANLAAQVRRELA
*A* no

*Q* Please indicate how the test categorized d1r7_design_ppi_733_dldesign_0_cycle0_af2pred (protein) MEEALKALEEAEEAAREAGDEESAEILEKAREEVKAGTPSEGALTVARAAAEAVARARAAGNEDLADRVRALANRAIAALSRAAIA .
*A* no

*Q* Record request — test call for d1r8_design_ppi_824_dldesign_0_cycle1_af2pred (protein) AEAERRRAEVLALFDEAVAAGSPELARAAAERAAELNPERAEDIRQQGEIAAALMPFSPRAARALMRTVAA
*A* no

*Q* What did this assay record as the result for d6r1_design_ppi_1105_dldesign_0_cycle1_af2pred (protein) AEKERLKEAAKRSAEKARELAKAGYALGAKAAILAAVRAAKEAGDAELVKEVLEVAKEAAKHPEVKPALEEAKKALEEVKK ?
*A* no

*Q* Hi team, can someone confirm the assay call for d1r8_design_ppi_401_dldesign_0_cycle1_af2pred (protein) MEKVEKAKKGLEQATELAKAMVPEKAEEFEKIRKEGVEEAKKAAGDPEKAAEILAKARNEILRNGIKAAMAAAKAAA ?
*A* yes

*Q* # lookup: test call for d1r7_design_ppi_562_dldesign_0_cycle1_af2pred (protein) SEKAEKLKKETLEKAEKAVKEAEASPDPKEGIKILSEAAREAARAAAESPEAGSAALALTVSAMEEFAAKARA
*A* no
